- MEASURED ON: N. gonorrhoeae PBP2 (Neisseria gonorrhoeae, UniProt P08149)
- Construct: made in house
- Sequence (P08149 whole entry): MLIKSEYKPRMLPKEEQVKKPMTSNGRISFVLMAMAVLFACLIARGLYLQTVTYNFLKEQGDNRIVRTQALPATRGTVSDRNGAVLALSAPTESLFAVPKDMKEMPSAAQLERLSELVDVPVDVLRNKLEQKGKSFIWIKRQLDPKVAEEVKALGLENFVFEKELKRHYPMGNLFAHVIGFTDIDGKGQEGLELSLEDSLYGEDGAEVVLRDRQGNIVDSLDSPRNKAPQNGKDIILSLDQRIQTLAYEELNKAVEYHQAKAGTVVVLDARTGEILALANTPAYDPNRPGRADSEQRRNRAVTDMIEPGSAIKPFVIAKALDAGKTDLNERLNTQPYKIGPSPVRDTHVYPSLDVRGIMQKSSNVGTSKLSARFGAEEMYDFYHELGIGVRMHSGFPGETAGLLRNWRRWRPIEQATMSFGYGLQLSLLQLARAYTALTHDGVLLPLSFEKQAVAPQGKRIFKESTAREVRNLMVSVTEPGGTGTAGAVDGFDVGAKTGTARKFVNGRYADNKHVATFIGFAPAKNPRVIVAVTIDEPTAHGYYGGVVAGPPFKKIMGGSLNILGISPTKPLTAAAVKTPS
- METHOD: Bocillin-FL fluorescence polarization competition binding assay, N. gonorrhoeae PBP2
- EXPERIMENTAL CONTEXT: fluorescence polarization competition binding assay using Bocillin-FL; read-out: N. gonorrhoeae PBP2 Potency
- Source text: Example I: Experimental Method for Penicillin-Binding Protein Binding Assays with Bocillin-FL Via Fluorescence Polarization […]
MEASUREMENT TYPE: EC50

{"MOLECULE": "NCCN1CCN(C(=O)N[C@@H](C(=O)N[C@H]2Cc3cccc(C(=O)O)c3OB2O)c2c(O)cc(O)cc2F)C(=O)C1=O (single isomer, unassigned)", "MEASURED ON": "N. gonorrhoeae PBP2 (Neisseria gonorrhoeae, UniProt P08149)", "MEASUREMENT TYPE": "EC50", "MEASUREMENT": "30 to 100 µM"}

Q: Recorded EC50 for CCN1CCN(C(=O)N[C@@H](C(=O)N[C@H]2Cc3cccc(C(=O)O)c3OB2O)c2cc(F)c(C(=O)O)cc2Cl)C(=O)C1=O (single isomer, unassigned) with N. gonorrhoeae PBP2 (Neisseria gonorrhoeae, UniProt P08149), please?
Ans: < 10 µM

Q: Recorded EC50 for CCN1CCN(C(=O)N[C@@H](C(=O)N[C@H]2Cc3cccc(C(=O)O)c3OB2O)c2cc(Cl)c(O)cc2Cl)C(=O)C1=O (single isomer, unassigned) with N. gonorrhoeae PBP2 (Neisseria gonorrhoeae, UniProt P08149), please?
Ans: < 10 µM

Q: Recorded EC50 for NCCCN1CCN(C(=O)N[C@@H](C(=O)N[C@H]2Cc3ccc(F)c(C(=O)O)c3OB2O)c2cc(F)c(O)c(O)c2Cl)C(=O)C1=O (single isomer, unassigned) with N. gonorrhoeae PBP2 (Neisseria gonorrhoeae, UniProt P08149), please?
Ans: > 100 µM

Q: Recorded EC50 for `NCCCN1CCN(C(=O)N[C@@H](C(=O)N[C@H]2Cc3cc(Cl)c(F)c(C(=O)O)c3OB2O)c2c(F)cc(O)c(O)c2Cl)C(=O)C1=O` with N. gonorrhoeae PBP2 (Neisseria gonorrhoeae, UniProt P08149), please?
Ans: > 100 µM

* * *

Listed here are compounds together with their documented MIC.
- Tested on: P. aeruginosa CDC-0095 producing OXA-50, and PAO
- METHOD: Broth microdilution MIC in iron-depleted CAMHB (IDM)
- Type: cell-based
- EXPERIMENTAL CONTEXT: Pseudomonas aeruginosa, read-out: Minimum Inhibitory Concentration, P. aeruginosa CDC-0095

{"COMPOUND": "CC(C)(C)[C@@H](NC(=O)N1CCN(CCNC(=O)c2c(F)cc(O)c(O)c2Cl)C(=O)C1=O)C(=O)N[C@H]1Cc2ccc(F)c(C(=O)O)c2OB1O", "MIC": "2 to 4 µg/mL"}
{"COMPOUND": "NS(=O)(=O)c1cc(O)cc(C(NC(=O)N2CCN(Cc3c(F)cc(O)c(O)c3Cl)C(=O)C2=O)C(=O)N[C@H]2Cc3cccc(C(=O)O)c3OB2O)c1 (stereo partly drawn)", "MIC": "> 128 µg/mL"}
{"COMPOUND": "CCN1CCN(C(=O)NC(C(=O)N[C@H]2Cc3ccc(F)c(C(=O)O)c3OB2O)c2c(F)cc(O)c(O)c2F)C(=O)C1=O (stereo partly drawn)", "MIC": "8 to 16 µg/mL"}
{"COMPOUND": "NS(=O)(=O)Nc1cccc(C(NC(=O)N2CCN(Cc3c(F)cc(O)c(O)c3Cl)C(=O)C2=O)C(=O)N[C@H]2Cc3cccc(C(=O)O)c3OB2O)c1 (stereo partly drawn)", "MIC": "8 to 16 µg/mL"}
{"COMPOUND": "NCCCN1CCN(C(=O)N[C@@H](C(=O)N[C@H]2Cc3cc(Cl)c(F)c(C(=O)O)c3OB2O)c2c(F)cc(O)c(O)c2Cl)C(=O)C1=O", "MIC": "8 to 16 µg/mL"}

Q: Endpoint output: MIC of C[C@H]1CN(CCNC(=O)c2ccc(O)c(O)c2Cl)C(=O)C(=O)N1C(=O)NC(C(=O)N[C@H]1Cc2cccc(C(=O)O)c2OB1O)c1ncc(O)cc1F (stereo partly drawn) . Value?
Ans: 8 to 16 µg/mL

Q: Endpoint output: MIC of O=C(NC(C(=O)N[C@H]1Cc2ccc(F)c(C(=O)O)c2OB1O)c1ncc(O)cc1F)c1c(F)cc(O)c(O)c1Cl (stereo partly drawn) . Value?
Ans: 2 to 4 µg/mL

Q: Endpoint output: MIC of `C[C@@H](O)[C@@H](NC(=O)N1CCN(CCNC(=O)c2c(F)cc(O)c(O)c2Cl)C(=O)C1=O)C(=O)N[C@H]1Cc2ccc(F)c(C(=O)O)c2OB1O` . Value?
Ans: 2 to 4 µg/mL

Q: Endpoint output: MIC of O=C(NC(C(=O)N[C@H]1Cc2ccc(F)c(C(=O)O)c2OB1O)c1ncc(O)cc1F)c1ccc(O)c(O)c1Cl (stereo partly drawn) . Value?
Ans: 2 to 4 µg/mL

* * *

Listed here are molecules together with their documented MIC.
- Tested on: N. gonorrhoeae FA1090
- METHOD: Liquid broth MIC in Fastidious broth
- Assay type: cell-based
- EXPERIMENTAL CONTEXT: Neisseria gonorrhoeae; N. gonorrhoeae strain FA1090; Fastidious broth; read-out: Minimum Inhibitory Concentration, N. gonorrhoeae FA1090

Solved entries (count: 4):
{"MOLECULE": "NCCCN1CCN(C(=O)N[C@@H](C(=O)N[C@H]2Cc3cc(Cl)c(F)c(C(=O)O)c3OB2O)c2c(F)cc(O)c(O)c2Cl)C(=O)C1=O [Example 190]", "MEASURED ON": "N. gonorrhoeae FA1090", "MIC": "16 to 32 µg/mL"}
{"MOLECULE": "NCCN1CCN(C(=O)N[C@@H](C(=O)N[C@H]2Cc3cccc(C(=O)O)c3OB2O)c2ccc(O)cc2F)C(=O)C1=O (single isomer, unassigned) [Example 89]", "MEASURED ON": "N. gonorrhoeae FA1090", "MIC": "1 to 2 µg/mL"}
{"MOLECULE": "O=C(NCCN1CCN(C(=O)NC(C(=O)N[C@H]2Cc3ccc(F)c(C(=O)O)c3OB2O)c2ncc(O)cc2F)C(=O)C1=O)c1c(F)cc(O)c(O)c1Cl (stereo partly drawn) [Example 5]", "MEASURED ON": "N. gonorrhoeae FA1090", "MIC": "4 to 8 µg/mL"}
{"MOLECULE": "NC(=O)c1ccc(C(NC(=O)N2CCN(CCF)C(=O)C2=O)C(=O)N[C@H]2Cc3cccc(C(=O)O)c3OB2O)cc1O (stereo partly drawn) [Example 46]", "MEASURED ON": "N. gonorrhoeae FA1090", "MIC": "< 0.125 µg/mL"}

Q: Recorded MIC for NCCCN1CCN(C(=O)N[C@@H](C(=O)N[C@H]2Cc3ccc(F)c(C(=O)O)c3OB2O)c2c(F)cc(O)c(O)c2Cl)C(=O)C1=O (single isomer, unassigned) [Example 27] with N. gonorrhoeae FA1090, please?
Ans: 16 to 32 µg/mL

Q: Recorded MIC for CCN1CCN(C(=O)NC(C(=O)N[C@H]2Cc3cccc(C(=O)O)c3OB2O)c2cccc(NS(N)(=O)=O)c2)C(=O)C1=O (stereo partly drawn) [Example 98] with N. gonorrhoeae FA1090, please?
Ans: 0.25 to 0.5 µg/mL

* * *

Listed here are compounds together with their documented MIC.
- Tested on: A. baumannii CDC-0033 producing NDM-1, and OXA-94

{"COMPOUND": "O=C(O)c1ccc(C(NC(=O)c2c(F)cc(O)c(O)c2Cl)C(=O)N[C@H]2Cc3ccc(F)c(C(=O)O)c3OB2O)cc1F (stereo partly shown)", "MEASURED ON": "A. baumannii CDC-0033 producing NDM-1, and OXA-94", "MIC": "32 to 64 µg/mL"}
{"COMPOUND": "C[C@@H](O)[C@@H](NC(=O)N1CCN(CCNC(=O)c2c(F)cc(O)c(O)c2Cl)C(=O)C1=O)C(=O)N[C@H]1Cc2ccc(F)c(C(=O)O)c2OB1O", "MEASURED ON": "A. baumannii CDC-0033 producing NDM-1, and OXA-94", "MIC": "32 to 64 µg/mL"}

Q: Endpoint output: MIC of CCN1CCN(C(=O)NC(C(=O)N[C@H]2Cc3ccc(F)c(C(=O)O)c3OB2O)c2cc(F)c(O)c(O)c2Cl)C(=O)C1=O (stereo partly shown) . Value?
Ans: 0.5 to 1 µg/mL

Q: Endpoint output: MIC of NC(C(=O)N[C@H]1Cc2ccc(F)c(C(=O)O)c2OB1O)c1c(F)cc(O)c(O)c1Cl (stereo partly shown) . Value?
Ans: 32 to 64 µg/mL

* * *

- MEASURED ON: E. coli K12 PBP3 (Escherichia coli)
- Sequence (P0AD68 1-577): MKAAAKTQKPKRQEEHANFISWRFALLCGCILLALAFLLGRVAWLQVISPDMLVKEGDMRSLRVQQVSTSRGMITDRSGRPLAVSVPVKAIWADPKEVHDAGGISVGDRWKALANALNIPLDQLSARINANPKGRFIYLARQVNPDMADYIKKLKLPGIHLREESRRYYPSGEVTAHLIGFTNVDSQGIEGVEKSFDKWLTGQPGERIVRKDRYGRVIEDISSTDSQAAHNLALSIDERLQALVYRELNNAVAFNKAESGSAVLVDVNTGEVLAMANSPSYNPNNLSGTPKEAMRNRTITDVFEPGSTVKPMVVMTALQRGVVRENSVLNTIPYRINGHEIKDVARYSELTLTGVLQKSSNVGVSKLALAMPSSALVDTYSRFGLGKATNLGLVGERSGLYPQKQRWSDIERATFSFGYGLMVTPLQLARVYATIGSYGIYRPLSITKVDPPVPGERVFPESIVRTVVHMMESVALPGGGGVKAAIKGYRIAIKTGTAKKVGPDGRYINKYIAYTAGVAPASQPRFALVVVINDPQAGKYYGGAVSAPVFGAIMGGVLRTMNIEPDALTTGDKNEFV
- METHOD: biochemical
- Excerpt: Example I: Experimental Method for Penicillin-Binding Protein Binding Assays with Bocillin-FL Via Fluorescence Polarization […]
MEASUREMENT TYPE: EC50

Q: Endpoint output: EC50 of CCN1CCN(C(=O)N[C@@H](C(=O)N[C@H]2Cc3cccc(C(=O)O)c3OB2O)c2ccc(C(=O)O)cc2O)C(=O)C1=O (single isomer, unassigned) [Example 144] . Value?
Ans: < 30 µM

Q: Endpoint output: EC50 of C[C@H]1CN(CCF)C(=O)C(=O)N1C(=O)NC(C(=O)N[C@H]1Cc2cccc(C(=O)O)c2OB1O)c1c(F)cc(O)cc1F (stereo partly drawn) [Example 233] . Value?
Ans: < 30 µM

Q: Endpoint output: EC50 of NCCN1CCN(C(=O)N[C@@H](C(=O)N[C@H]2Cc3ccc(F)c(C(=O)O)c3OB2O)c2c(F)cc(O)cc2F)C(=O)C1=O (single isomer, unassigned) [Example 127] . Value?
Ans: < 30 µM

Q: Endpoint output: EC50 of CCN1CCN(C(=O)N[C@H](C(=O)N[C@H]2Cc3ccc(F)c(C(=O)O)c3OB2O)c2ccc(O)c(O)c2)C(=O)C1=O [Example 210] . Value?
Ans: > 500 µM

Q: Endpoint output: EC50 of CCN1CCN(C(=O)N[C@@H](C(=O)N[C@H]2Cc3cccc(C(=O)O)c3OB2O)c2cc(O)cc(O)c2)C(=O)C1=O (single isomer, unassigned) [Example 82] . Value?
Ans: 30 to 500 µM

Q: Endpoint output: EC50 of CCN1CCN(C(=O)NC(C(=O)N[C@H]2Cc3cccc(C(=O)O)c3OB2O)c2c(F)c(O)cc(O)c2F)C(=O)C1=O (stereo partly drawn) [Example 106] . Value?
Ans: 30 to 500 µM
